Measured fold change (FC) accompanies every entry in the list below.
System: Human immunodeficiency virus 1
test summary: Antiviral activity against HIV1 with RT connection domain G190S/N348I mutant transfected in HEK293 cells assessed as inhibition of viral replication relative to HIV1 NL4-3
Type: functional

[
  {
    "item smiles": "O=C1Nc2ccc(Cl)cc2[C@@](C#CC2CC2)(C(F)(F)F)O1",
    "target": "Human immunodeficiency virus 1",
    "qualifier symbol": ">",
    "fold change (FC)": 700
  },
  {
    "item smiles": "Cc1cn([C@H]2C[C@H](N=[N+]=[N-])[C@@H](CO)O2)c(=O)[nH]c1=O",
    "target": "Human immunodeficiency virus 1",
    "qualifier symbol": "=",
    "fold change (FC)": 1.7
  },
  {
    "item smiles": "CC(C)Nc1cccnc1N1CCN(C(=O)c2cc3cc(NS(C)(=O)=O)ccc3[nH]2)CC1",
    "target": "Human immunodeficiency virus 1",
    "qualifier symbol": "=",
    "fold change (FC)": 0.9
  },
  {
    "item smiles": "Cc1ccnc2c1NC(=O)c1cccnc1N2C1CC1",
    "target": "Human immunodeficiency virus 1",
    "qualifier symbol": ">",
    "fold change (FC)": 400
  }
]

====

Tested on: Human immunodeficiency virus 1
test summary: Antiviral activity against HIV1 with RT connection domain G190A/T369I/N348I mutant transfected in HEK293 cells assessed as inhibition of viral replication relative to HIV1 NL4-3
Assay type: functional
measure name: fold change (FC)

[
  {
    "item smiles": "CC(C)Nc1cccnc1N1CCN(C(=O)c2cc3cc(NS(C)(=O)=O)ccc3[nH]2)CC1",
    "target": "Human immunodeficiency virus 1",
    "data value": 5.9
  },
  {
    "item smiles": "Cc1ccnc2c1NC(=O)c1cccnc1N2C1CC1",
    "target": "Human immunodeficiency virus 1",
    "data value": ">400"
  },
  {
    "item smiles": "Cc1cn([C@H]2C[C@H](N=[N+]=[N-])[C@@H](CO)O2)c(=O)[nH]c1=O",
    "target": "Human immunodeficiency virus 1",
    "data value": 4.2
  },
  {
    "item smiles": "O=C1Nc2ccc(Cl)cc2[C@@](C#CC2CC2)(C(F)(F)F)O1",
    "target": "Human immunodeficiency virus 1",
    "data value": ">700"
  }
]

====

System: Human immunodeficiency virus 1
test summary: Antiviral activity against HIV1 with RT connection domain G190A mutant transfected in HEK293 cells assessed as inhibition of viral replication relative to HIV1 NL4-3
Assay type: functional

[
  {
    "item smiles": "Cc1ccnc2c1NC(=O)c1cccnc1N2C1CC1",
    "target": "Human immunodeficiency virus 1",
    "fold change (FC)": 127.7
  },
  {
    "item smiles": "CC(C)Nc1cccnc1N1CCN(C(=O)c2cc3cc(NS(C)(=O)=O)ccc3[nH]2)CC1",
    "target": "Human immunodeficiency virus 1",
    "fold change (FC)": 0.3
  },
  {
    "item smiles": "Cc1cn([C@H]2C[C@H](N=[N+]=[N-])[C@@H](CO)O2)c(=O)[nH]c1=O",
    "target": "Human immunodeficiency virus 1",
    "fold change (FC)": 1.1
  },
  {
    "item smiles": "O=C1Nc2ccc(Cl)cc2[C@@](C#CC2CC2)(C(F)(F)F)O1",
    "target": "Human immunodeficiency virus 1",
    "fold change (FC)": 5.2
  }
]
